Target or system 5-HT2A (Homo sapiens); recorded quantity Ki.

In [3]: df
Out[3]:
                                   compound  readout  measured_value
0  CN1CCN(c2nc(N)nc(CN3C(=O)NC(C)(c4ccc(Cl)cc4Cl)C3=O)n2)CC1 (stereo not shown) [Compound 22]       Ki         10.8 µM
1  CN1CCN(c2nc(N)nc(CN3C(=O)NC(C)(c4cccc(Cl)c4)C3=O)n2)CC1 (stereo not shown) [Compound 20]       Ki          7.4 µM
2  CN1CCN(c2nc(N)nc(CN3C(=O)NC(C)(c4ccc(Cl)c(Cl)c4Cl)C3=O)n2)CC1 (stereo not shown) [Compound 23]       Ki         3.43 µM

Read the next record carefully.
// Ki value for Cc1cccc(CN2C(=O)N(Cc3nc(N)nc(N4CCN(C)CC4)n3)C(=O)C2(C)C)c1 [Compound 17] : 0.817 µM

---

- Study System: human serotonin 5-HT6R (Homo sapiens, UniProt P50406)
- Sequence (P50406 whole entry): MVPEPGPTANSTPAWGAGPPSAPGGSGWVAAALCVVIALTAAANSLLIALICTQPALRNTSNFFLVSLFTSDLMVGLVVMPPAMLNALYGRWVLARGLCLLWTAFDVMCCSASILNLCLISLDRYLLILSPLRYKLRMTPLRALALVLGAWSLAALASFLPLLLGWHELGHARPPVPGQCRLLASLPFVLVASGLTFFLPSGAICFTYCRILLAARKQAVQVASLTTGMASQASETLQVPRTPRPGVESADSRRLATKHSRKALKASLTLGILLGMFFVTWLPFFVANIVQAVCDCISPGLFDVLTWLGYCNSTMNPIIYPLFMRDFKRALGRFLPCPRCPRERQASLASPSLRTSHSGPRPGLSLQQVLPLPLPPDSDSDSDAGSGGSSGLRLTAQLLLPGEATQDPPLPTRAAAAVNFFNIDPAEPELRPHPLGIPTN
Readout: pKi
Scale note: pKi = -log10(concentration in M).

# count of solved cases: 3
In [3]: df
Out[3]:
                                   molecule  measured_value
0  COc1cccc(CN2C(=O)N(Cc3nc(N)nc(N4CCN(C)CC4)n3)C(=O)C2(C)C)c1 [Compound 16]            6.16
1  CN1CCN(c2nc(N)nc(CN3C(=O)NC(C)(c4ccc(Cl)cc4Cl)C3=O)n2)CC1 (stereo not shown) [Compound 22]            6.34
2  CN1CCN(c2nc(N)nc(CN3C(=O)NC(C)(c4ccccc4)C3=O)n2)CC1 (stereo not shown) [Compound 19]            6.14

Read the next record carefully.
// pKi value for CN1CCN(c2nc(N)nc(CN3C(=O)N(Cc4cccc(Br)c4)C(C)(C)C3=O)n2)CC1 [Compound 15] : 6.24

---

Target or system 5-HT7bR (Homo sapiens); recorded quantity Ki.
Only the number, expressed in µM, is required.

>>> print(df.to_string())
                                   molecule            study_system  unit_symbol  measured_value
0  CN1CCN(c2nc(N)nc(CN3C(=O)NC(C)(c4cccc5ccccc45)C3=O)n2)CC1 (stereo not shown)  5-HT7bR (Homo sapiens)           µM            3.37

The molecule CN1CCN(c2nc(N)nc(CN3C(=O)NC(C)(c4ccc5ccccc5c4)C3=O)n2)CC1 (stereo not shown) , tested on 5-HT7bR (Homo sapiens), showed Ki of 0.514

The molecule "CN1CCN(c2nc(N)nc(CN3C(=O)N(Cc4ccc5ccccc5c4)C(C)(C)C3=O)n2)CC1" , tested on 5-HT7bR (Homo sapiens), showed Ki of 1.53

The molecule Cc1ccc(C2(C)NC(=O)N(Cc3nc(N)nc(N4CCN(C)CC4)n3)C2=O)cc1 (stereo not shown) , tested on 5-HT7bR (Homo sapiens), showed Ki of 0.564

---

- Study System: 5-HT7bR (Homo sapiens)
- Sequence (P34969 1-432 limits assumed): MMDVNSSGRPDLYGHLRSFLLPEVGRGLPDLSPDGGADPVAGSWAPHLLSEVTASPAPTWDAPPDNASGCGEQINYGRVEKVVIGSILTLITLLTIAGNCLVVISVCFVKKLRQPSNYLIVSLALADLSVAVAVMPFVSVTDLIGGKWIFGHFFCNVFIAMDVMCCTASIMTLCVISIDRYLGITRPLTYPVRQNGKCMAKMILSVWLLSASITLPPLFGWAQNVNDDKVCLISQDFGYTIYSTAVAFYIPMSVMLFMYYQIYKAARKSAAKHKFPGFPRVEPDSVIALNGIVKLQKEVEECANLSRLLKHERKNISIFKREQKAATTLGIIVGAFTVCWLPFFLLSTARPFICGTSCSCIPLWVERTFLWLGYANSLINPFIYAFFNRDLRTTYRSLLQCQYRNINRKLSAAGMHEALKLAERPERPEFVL
Readout: Ki

                           substance_smiles            study_system  readout  measured_value
0  CN1CCN(c2nc(N)nc(CN3C(=O)N(Cc4ccc(Cl)cc4Cl)C(C)(C)C3=O)n2)CC1  5-HT7bR (Homo sapiens)       Ki         1.12 µM
1  CN1CCN(c2nc(N)nc(CN3C(=O)N(Cc4cccc(Cl)c4)C(C)(C)C3=O)n2)CC1  5-HT7bR (Homo sapiens)       Ki        0.159 µM
2  CN1CCN(c2nc(N)nc(CN3C(=O)NC(c4ccc(Cl)cc4)(c4ccc(Cl)cc4)C3=O)n2)CC1  5-HT7bR (Homo sapiens)       Ki        0.594 µM

Read the next record carefully.
The molecule "Cc1cccc(CN2C(=O)N(Cc3nc(N)nc(N4CCN(C)CC4)n3)C(=O)C2(C)C)c1" , tested on 5-HT7bR (Homo sapiens), showed Ki of 0.42 µM
